# experimental_target: acetylcholine receptor
# assay_comment: SPR, AchR immobilised on chip, peptide 10 uM
measured_quantity: Binding affinity (RU)

The following binders have reported results that may help.
>>> measured_number("KDTAR [5mer-840]")
11
>>> measured_number("KECFR [5mer-1116]")
24
>>> measured_number("KCKMK [5mer-826]")
11
>>> measured_number("RFSDR [5mer-803]")
11
>>> measured_number("KCHPK [5mer-1109]")
14
>>> measured_number("KKWQSR [6mer-1-233]")
128
>>> measured_number("RRQYQR [6mer-1-264]")
128
>>> measured_number("KKRQRR [6mer-1-204]")
154
>>> measured_number("RRQITR [6mer-1-203]")
142
>>> measured_number("KFHKK [5mer-810]")
11

(P) RMHMK [5mer-1110]
(Q) RRGFRR [6mer-1-245]
Compare P and Q by numeric Binding affinity (RU) and name the larger one. Write down the label of the entry you select.
Q

(a) RKDHR [5mer-815]
(b) KRRLLR [6mer-1-267]
Between a and b , which one has the lower reported Binding affinity (RU) value? Write down the label of the entry you select.
a

(A) RHHDK [5mer-839]
(B) KKLQYK [6mer-1-258]
(C) KKSHR [5mer-1103]
(D) RYMVK [5mer-848]
Put these in order: smallest Binding affinity (RU) first, largest last. Arrange the labels as the request states and list them.
D, C, A, B

(I) KRGFLR [6mer-1-224]
(II) REWVR [5mer-1128]
Between I and II , which one has the lower reported Binding affinity (RU) value? Write down the label of the entry you select.
II

(P) KCWHR [5mer-829]
(Q) RIADR [5mer-1127]
(R) RRQLTK [6mer-1-202]
Could you please sort these 3 entries by Binding affinity (RU) from high to low? Arrange the labels as the request states and list them.
R, P, Q
(R: 154 RU, P: 26 RU, Q: 16 RU)

(1) RKQLQR [6mer-1-262]
(2) KTENK [5mer-1142]
(3) RATAR [5mer-1099]
Could you please sort these 3 entries by Binding affinity (RU) from high to low? Arrange the labels as the request states and list them.
1, 2, 3
(1: 139 RU, 2: 24 RU, 3: 14 RU)

(A) RRLVSR [6mer-1-246]
(B) RPWHK [5mer-1107]
Between A and B , which one has the lower reported Binding affinity (RU) value? Write down the label of the entry you select.
B
(B: 21 RU, A: 122 RU)
